Where these numbers come from: the supplement of paper PMC4466140

Record form. Attribute: SPOT peptide array binding signal intensity. Fill in for each entry.
target: SpMyo1; assay: SPOT peptide array binding signal intensity (averaged, normalized) (arbitrary units (background-subtracted, floor 0; scale differs between SH3 domains)); higher = stronger binding of the SH3 domain to the peptide
Answers are plain numbers.

1) QPPLPSSAPPIPTSH : 1080
2) TTAPALPSLPPPPLL : 1940
3) ISNFVPPNLPMRRFK : 31.2
4) RSVKRPRRAPRPVVS : 16
5) TPTSGPPLLPPRNTM : 156

stdin: Entry "SPLGAPPPPPHKDHL" : reported SPOT peptide array binding signal intensity = ?
stdout: 1260
